tested on: PPARg DBDmut IVT, anti-PPARg (DBD mutation: PPARg1 K132A/R137A, NR concentration 270 nM); assay: PBM binding z-score (relative to random genomic background probes); higher = stronger binding; sequences stand for … in GC…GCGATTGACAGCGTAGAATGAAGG
QUANTITY_MEASURED: PBM binding z-score

- SEQUENCE_CHAIN: "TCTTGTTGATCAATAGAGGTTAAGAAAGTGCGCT"
  MEASURED_VALUE: 1.13
- SEQUENCE_CHAIN: "GCAGACAGGAGAAACGCAGGTAACTCAGGGTGGC"
  MEASURED_VALUE: -0.99
- SEQUENCE_CHAIN: "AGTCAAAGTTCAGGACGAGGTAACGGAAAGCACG"
  MEASURED_VALUE: 0.337
- SEQUENCE_CHAIN: "ATCTCTAGGTAAAAGTTAAGTGAATCCCGAGGAT"
  MEASURED_VALUE: 1.28
- SEQUENCE_CHAIN: "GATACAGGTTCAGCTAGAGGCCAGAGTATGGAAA"
  MEASURED_VALUE: -1
- SEQUENCE_CHAIN: "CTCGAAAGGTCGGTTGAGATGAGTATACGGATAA"
  MEASURED_VALUE: 0.37
- SEQUENCE_CHAIN: "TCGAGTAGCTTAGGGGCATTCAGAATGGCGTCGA"
  MEASURED_VALUE: -0.923
- SEQUENCE_CHAIN: "TCTAGTTGGTCTCGGAGGTCACACACGACGGGTA"
  MEASURED_VALUE: 1.29
- SEQUENCE_CHAIN: "GCAGACAGGTCAAACGCAGGTAACTCAGGGTGGC"
  MEASURED_VALUE: -0.842
- SEQUENCE_CHAIN: "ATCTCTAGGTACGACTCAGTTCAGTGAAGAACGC"
  MEASURED_VALUE: 1.02
- SEQUENCE_CHAIN: "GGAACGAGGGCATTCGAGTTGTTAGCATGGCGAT"
  MEASURED_VALUE: -0.86
- SEQUENCE_CHAIN: "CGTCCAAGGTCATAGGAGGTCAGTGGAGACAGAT"
  MEASURED_VALUE: -0.0581
- SEQUENCE_CHAIN: "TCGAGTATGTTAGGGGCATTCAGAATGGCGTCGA"
  MEASURED_VALUE: -1.16
- SEQUENCE_CHAIN: "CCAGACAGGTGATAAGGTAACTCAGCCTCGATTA"
  MEASURED_VALUE: -0.29
- SEQUENCE_CHAIN: "CAAACTAGGTCAAGAGGTCAAAGTGCGCTTCCCG"
  MEASURED_VALUE: 0.825
